# experimentNotes: Stability (placement) test of ADCs at 40° C. in dark for 14 days, DAR and polymer content
# Assay type: physicochemical
# experimentalParameters: Day 7, 40° C. in dark
*1 amine or outer side, *2 acyl side, *3 side chain or, on linkers, in order; H or OH if unused. Where a SMILES comes first, the peptide text is derived from it. [ ]: non-standard residue; d: D form. The star is where a group is joined. Exatecan = CC[C@@]1(O)C(=O)OCc2c1cc1n(c2=O)Cc2c-1nc1cc(F)c(C)c3c1c2[C@@H](N*)CC3; Propanoyl(3-maleimido) = O=C1C=CC(=O)N1CCC(=O)*; X1 = O=C(CN1CCOCCN([*:1])CCOCC1)[*:2]; NHCH2OCH2CO = O=C(COCN[*:1])[*:2]

compound: C=C1C[C@@H]2CC[C@@]34C[C@H]5OC6C(O[C@H]7CC[C@H](CC(=O)C[C@@H]8[C@@H](OC)[C@@H](C[C@H](O)CNC(=O)CNC(=O)[C@H](Cc9ccccc9)NC(=O)CNC(=O)CNC(=O)CN9CCOCCOCCN(C(=O)CCCC%10C(=O)C=CC%10=O)CCOCCOCC9)O[C@H]8C[C@H]8O[C@@H](CC[C@@H]1O2)C[C@@H](C)C8=C)O[C@@H]7[C@@H]6O3)[C@H]5O4
DAR: 3.81

compound: C=C1C[C@@H]2CC[C@@]34C[C@H]5OC6C(O[C@H]7CC[C@H](CC(=O)C[C@@H]8[C@@H](OC)[C@@H](C[C@H](O)CNC(=O)CNC(=O)[C@H](Cc9ccccc9)NC(=O)CNC(=O)CN9CCOCCOCCN(C(=O)CCCC%10C(=O)C=CC%10=O)CCOCCOCC9)O[C@H]8C[C@H]8O[C@@H](CC[C@@H]1O2)C[C@@H](C)C8=C)O[C@@H]7[C@@H]6O3)[C@H]5O4
DAR: 4.11

compound: CC[C@@]1(O)C(=O)OCc2c1cc1n(c2=O)Cc2c-1nc1cc(F)c(C)c3c1c2[C@@H](NC(=O)COCNC(=O)CNC(=O)[C@H](Cc1ccccc1)NC(=O)CNC(=O)CNC(=O)CN1CCOCCN(C(=O)CCN2C(=O)C=CC2=O)CCOCC1)CC3 [Example 22] ({Propanoyl(3-maleimido)}-[X1]GGFG[NHCH2OCH2CO]-Exatecan)
DAR: 4.12

###

# experimentNotes: Stability (placement) test of ADCs at 40° C. in dark for 14 days, DAR and polymer content
# Type: physicochemical
# experimentalParameters: Day 7, 40° C. in dark
Measured DAR, listed per entry.
property: DAR

inputSmiles: C=C1C[C@@H]2CC[C@@]34C[C@H]5OC6C(C[C@H]7CC[C@H](CC(=O)C[C@@H]8[C@@H](OC)[C@@H](C[C@H](O)CNC(=O)CNC(=O)[C@H](Cc9ccccc9)NC(=O)CNC(=O)CNC(=O)CCC(=O)N9CCOCCN(C(=O)CCN%10C(=O)C=CC%10=O)CCOCC9)O[C@H]8C[C@H]8O[C@@H](CC[C@@H]1O2)C[C@@H](C)C8=C)O[C@@H]7[C@@H]6O3)[C@H]5O4
measValue: 3.92
--
inputSmiles: CC[C@@]1(O)C(=O)OCc2c1cc1n(c2=O)Cc2c-1nc1cc(F)c(C)c3c1c2[C@@H](NC(=O)COCNC(=O)CNC(=O)CNC(=O)CNC(=O)CN1CCOCCN(C(=O)CCN2C(=O)C=CC2=O)CCOCC1)CC3
measValue: 3.89

###

The entries below are paired with their reported DAR.
# experimentNotes: Stability (placement) test of ADCs at 40° C. in dark for 14 days, DAR and polymer content
# Format: physicochemical
# experimentalParameters: Day 14, 40° C. in dark
property: DAR

inputSmiles: CCc1c2c(nc3ccc(O)cc13)-c1cc3c(c(=O)n1C2)COC(=O)[C@@]3(CC)OC(=O)N(C)CCN(C)C(=O)COCNC(=O)[C@H](CC(N)=O)NC(=O)[C@H](C)NC(=O)[C@H](C)NC(=O)CN1CCOCCN(C(=O)CCN2C(=O)C=CC2=O)CCOCC1
property: DAR
measValue: 3.96
//
inputSmiles: C=C1C[C@@H]2CC[C@@]34C[C@H]5OC6C(O[C@H]7CC[C@H](CC(=O)C[C@@H]8[C@@H](OC)[C@@H](C[C@H](O)CNC(=O)CNC(=O)[C@H](Cc9ccccc9)NC(=O)CNC(=O)CNC(=O)CN9CCOCCOCCN(C(=O)CCCCCN%10C(=O)C=CC%10=O)CCOCCOCC9)O[C@H]8C[C@H]8O[C@@H](CC[C@@H]1O2)C[C@@H](C)C8=C)O[C@@H]7[C@@H]6O3)[C@H]5O4
property: DAR
measValue: 4.30

###

# Type: physicochemical
# experimentalParameters: ADC with Her2 antibody, RP-HPLC-MS
*1 amine or outer side, *2 acyl side, *3 side chain or, on linkers, in order; H or OH if unused. Where a SMILES comes first, the peptide text is derived from it. [ ]: non-standard residue; d: D form. The star is where a group is joined. MaleimidoPEG4propanoyl = O=C1C=CC(=O)N1CCOCCOCCOCCOCCC(=O)*; X2 = CO[C@@H]([C@H]1CCCN1[*:1])[C@@H](C)C(=O)[*:2]; Dil = CC[C@H](C)[C@H](NC)[C@@H](CC(=O)O)OC; X1 = O=C(CN1CCOCCN([*:1])CCOCC1)[*:2]; PABC = O=C(OCc1ccc(N[*:1])cc1)[*:2]; X3 = C[C@@H](N*)[C@@H](O)c1ccccc1; NMeV = CN[C@H](C(=O)O)C(C)C
property: DAR

compound: CCc1c2c(nc3ccc(O)cc13)-c1cc3c(c(=O)n1C2)COC(=O)[C@@]3(CC)OC(=O)N(C)CCN(C)C(=O)COCNC(=O)CNC(=O)[C@H](Cc1ccccc1)NC(=O)CNC(=O)CNC(=O)CCN1C(=O)C=CC1=O [Comparative Example 6, reference compound]
measValue: 2.76
//
compound: C=C1C[C@@H]2CC[C@@]34C[C@H]5OC6C(O[C@H]7CC[C@H](CC(=O)C[C@@H]8[C@@H](OC)[C@@H](C[C@H](O)CNC(=O)CNC(=O)[C@H](Cc9ccccc9)NC(=O)CNC(=O)CNC(=O)CCN9C(=O)C=CC9=O)O[C@H]8C[C@H]8O[C@@H](CC[C@@H]1O2)C[C@@H](C)C8=C)O[C@@H]7[C@@H]6O3)[C@H]5O4 [Comparative Example 12, reference compound]
measValue: 2.67
//
compound: C=C1C[C@@H]2CC[C@@]34C[C@H]5OC6C(O[C@H]7CC[C@H](CC(=O)C[C@@H]8[C@@H](OC)[C@@H](C[C@H](O)CNC(=O)CNC(=O)[C@H](Cc9ccccc9)NC(=O)CNC(=O)CN9CCOCCOCCN(C(=O)CCCC%10C(=O)C=CC%10=O)CCOCCOCC9)O[C@H]8C[C@H]8O[C@@H](CC[C@@H]1O2)C[C@@H](C)C8=C)O[C@@H]7[C@@H]6O3)[C@H]5O4
measValue: 4.12
//
compound: CCc1c2c(nc3ccc(O)cc13)-c1cc3c(c(=O)n1C2)CCC(=O)[C@@]3(CC)OC(=O)N(C)CCN(C)C(=O)COCNC(=O)CNC(=O)[C@H](Cc1ccccc1)NC(=O)CNC(=O)CNC(=O)CN1CCOCCN(C(=O)CCN2C(=O)C=CC2=O)CCOCC1
measValue: 4.12
//
compound: CC[C@H](C)[C@@H]([C@@H](CC(=O)N1CCC[C@@H]1[C@H](OC)[C@@H](C)C(=O)N[C@H](C)[C@@H](O)c1ccccc1)OC)N(C)C(=O)[C@@H](NC(=O)[C@H](C(C)C)N(C)C(=O)OCc1ccc(NC(=O)CNC(=O)[C@H](Cc2ccccc2)NC(=O)CNC(=O)CNC(=O)CN2CCOCCN(C(=O)CCOCCOCCOCCOCCN3C(=O)C=CC3=O)CCOCC2)cc1)C(C)C [Example 85] (MaleimidoPEG4propanoyl-[X1]GGFG[PABC][NMeV]V[Dil][X2]-X3)
measValue: 4.04
//
compound: C=C1C[C@@H]2CC[C@@]34C[C@H]5OC6C(O[C@H]7CC[C@H](CC(=O)C[C@@H]8[C@@H](OC)[C@@H](C[C@H](O)CNC(=O)CNC(=O)[C@H](Cc9ccccc9)NC(=O)CNC(=O)CNC(=O)CN9CCOCCOCCN(C(=O)CCCC%10C(=O)C=CC%10=O)CCOCCOCC9)O[C@H]8C[C@H]8O[C@@H](CC[C@@H]1O2)C[C@@H](C)C8=C)O[C@@H]7[C@@H]6O3)[C@H]5O4
measValue: 3.84

###

Listed below: Naked antibody content (%) values for each entry.
# experimentNotes: Naked antibody content of antibody-drug conjugates by hydrophobic interaction chromatography (HIC)
# Type: physicochemical
# experimentalParameters: ADC with Her2 antibody
*1 amine or outer side, *2 acyl side, *3 side chain or, on linkers, in order; H or OH if unused. Where a SMILES comes first, the peptide text is derived from it. [ ]: non-standard residue; d: D form. The star is where a group is joined. Exatecan = CC[C@@]1(O)C(=O)OCc2c1cc1n(c2=O)Cc2c-1nc1cc(F)c(C)c3c1c2[C@@H](N*)CC3; Propanoyl(3-maleimido) = O=C1C=CC(=O)N1CCC(=O)*; X1 = O=C(CN1CCOCCN([*:1])CCOCC1)[*:2]; NHCH2OCH2CO = O=C(COCN[*:1])[*:2]

molecule: C=C1C[C@@H]2CC[C@@]34C[C@H]5OC6C(O[C@H]7CC[C@H](CC(=O)C[C@@H]8[C@@H](OC)[C@@H](C[C@H](O)CNC(=O)CNC(=O)[C@H](Cc9ccccc9)NC(=O)CNC(=O)CN9CCOCCOCCN(C(=O)CCCC%10C(=O)C=CC%10=O)CCOCCOCC9)O[C@H]8C[C@H]8O[C@@H](CC[C@@H]1O2)C[C@@H](C)C8=C)O[C@@H]7[C@@H]6O3)[C@H]5O4 [Example 42]
Naked antibody content (%): 1.06
//
molecule: CCc1c2c(nc3ccc(O)cc13)-c1cc3c(c(=O)n1C2)COC(=O)[C@@]3(CC)OC(=O)N(C)CCN(C)C(=O)COCNC(=O)[C@H](CC(N)=O)NC(=O)[C@H](C)NC(=O)[C@H](C)NC(=O)CN1CCOCCN(C(=O)CCN2C(=O)C=CC2=O)CCOCC1 [Example 83]
Naked antibody content (%): 2.23
//
molecule: CC[C@@]1(O)C(=O)OCc2c1cc1n(c2=O)Cc2c-1nc1cc(F)c(C)c3c1c2[C@@H](NC(=O)COCNC(=O)CNC(=O)[C@H](Cc1ccccc1)NC(=O)CNC(=O)CNC(=O)CN1CCOCCN(C(=O)CCN2C(=O)C=CC2=O)CCOCC1)CC3 [Example 22] ({Propanoyl(3-maleimido)}-[X1]GGFG[NHCH2OCH2CO]-Exatecan)
Naked antibody content (%): 0.00
